B1: CPEB3 Ribozyme (parent)
chain: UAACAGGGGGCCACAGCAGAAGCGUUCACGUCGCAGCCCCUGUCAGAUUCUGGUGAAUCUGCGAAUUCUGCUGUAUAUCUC

# Variants of: B1
# experiment: self-cleavage, relative activity (ratio to wild type); higher = more cleavage; in vitro, sequencing
Answer not fulfilled if self-cleavage is under 0.4, and fulfilled if it is 0.4 or more.

{"sequence_variant": "C11A A13U", "classification": "not fulfilled"}
{"sequence_variant": "C12A G30U", "classification": "not fulfilled"}
{"sequence_variant": "U48C U72C", "classification": "fulfilled"}
{"sequence_variant": "U60G U80C", "classification": "fulfilled"}
{"sequence_variant": "C34G U78A", "classification": "not fulfilled"}
{"sequence_variant": "A65G U69A", "classification": "not fulfilled"}
{"sequence_variant": "G7A C40A", "classification": "not fulfilled"}
{"sequence_variant": "G33U C38U", "classification": "not fulfilled"}
{"sequence_variant": "A5G A18G", "classification": "fulfilled"}
{"sequence_variant": "A56G U76C", "classification": "fulfilled"}
{"sequence_variant": "C11U U48A", "classification": "not fulfilled"}
{"sequence_variant": "A65G U80A", "classification": "fulfilled"}
{"sequence_variant": "U26A U58A", "classification": "not fulfilled"}

All figures here come from the RNAGym collection of RNA variant scans (doi:10.1093/nar/gkz1192).
